// reported exon inclusion enrichment index for each item listed
B1: mRNA-splicing (parent)
chain: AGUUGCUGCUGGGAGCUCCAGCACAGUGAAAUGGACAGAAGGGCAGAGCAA

variants of: B1; experiment: exon inclusion enrichment index; higher = more inclusion; WT1 exon 5 minigene, HEK293

Input line: Consider the variant G5C C6U G8C C9U U10C C16G U17C and give its measured exon inclusion enrichment index.
Output line: 1.12

Input line: Consider the variant C6A U7C C9A U10G G11U and give its measured exon inclusion enrichment index.
Output line: 2.09

Input line: Need exon inclusion enrichment index, item G38U A39G
Output line: 0.0472

Input line: Which exon inclusion enrichment index value is on record for G8U C9G ?
Output line: 0.455

Input line: # exon inclusion enrichment index lookup, item G5U G8U C9U G11A
Output line: 0.0224

Input line: State the recorded exon inclusion enrichment index for this entry: C6A U7G G8U C9A U10C
Output line: 0.407

Input line: What exon inclusion enrichment index value was documented for this variant, C6A U7C C9A U10C G46A A47G ?
Output line: 1.33

Input line: Value lookup for exon inclusion enrichment index; key = G5U G8U C9U C24G
Output line: 0.199

Input line: What does the data say about its exon inclusion enrichment index? Entry: G5C C6A U7C G8A U10A A25U
Output line: 0.205

Input line: What measured exon inclusion enrichment index goes with G15C ?
Output line: 0.187

Input line: Reported exon inclusion enrichment index for G5C C6U G8C C9U U10C G46U A47G : what is it?
Output line: 1.76
